Value source: paper PMC10798254

- Test system: QG56 (wild-type EGFR)
- Method Summary: Methylene blue IC50 assay
- Type: cell-based
- Test Conditions: Homo sapiens, QG-56
pIC50: −log10 of the molar value.
Parameter Measured: pIC50

# Substance Smiles, Recorded Value
data = [
    ("C=CC(=O)Nc1cc(Nc2nccc(-c3cn(C)c4ccccc34)n2)c(OC)cc1N(C)CCN(C)C", 5.74),
]
